Assay Overview: qHTS assay for small molecule activators of the nuclear factor-kappa B (NF-kB) signaling pathway (AID 651749); note: % of control where 0% means no effect
Run Conditions: NF-kB-bla ME-180 cells, beta-lactamase FRET ratio, 16 h; hits give high values
Results filed as inconclusive are left out. Active and inactive are the calls of the source. Calls come from the whole dose curve; as a rule, active = well fitted activation curve with a large enough effect in the signal ratio; inconclusive = small, poorly fitted or top-dose-only effect, or a change in a side signal; inactive = flat fitted curve, though single readings scatter; the % refers to the signal ratio.
Examples of molecules with documented activation follow.

Use these answered entries as a reference point.
Molecule: CCOC(=O)C(C)(C)Oc1ccc(Cl)cc1
activation: -3.61% (inactive)
--
Molecule: N[C@@H](Cc1c[nH]c2ccc(O)cc12)C(=O)O
activation: 0.166% (inactive)
--
Molecule: Cn1c(=O)c2[nH]cnc2n(C)c1=O
activation: 0.41% (inactive)
--
Molecule: Clc1ccc(C(c2ccccc2Cl)C(Cl)Cl)cc1 (configuration not stated)
activation: 2.3% (inactive)
--
Molecule: Cn1cnc2c1c(=O)[nH]c(=O)n2C
activation: -2.65% (inactive)

Q: Item under review: Cc1ccc(-c2cc(C(F)(F)F)nn2-c2ccc(S(N)(=O)=O)cc2)cc1 . Reported activation?
Ans: -1.1% (inactive)

Q: # input molecule: CC#C[C@]1(O)CC[C@H]2[C@@H]3CCC4=CC(=O)CCC4=C3[C@@H](c3ccc(N(C)C)cc3)C[C@@]21C ; wanted: its activation
Ans: 4.11% (inactive)

* * *

System: HEK293
Assay Overview: Cytotoxic Profiling of Annotated Libraries Using Quantitative High-Throughput Screening (AID 1296008); note: nearly all actives have a fitted effect of over 60% in size; note: potency is the fitted concentration of half-maximal effect
Run Conditions: Five cell lines viability, CellTiter-Glo ATP luminescence, 48-72 h
Results filed as inconclusive are left out. Activity calls are given as the source filed them. The call rests on the fitted dose curve; in most records, active means well fitted inhibition curve with a large enough effect; inconclusive means small, poorly fitted or top-dose-only effect; inactive means flat fitted curve, though single readings scatter.
Readout Label: Potency

Use the examples below as a reference point.
Molecule: NS(=O)(=O)c1cc2c(cc1Cl)NCNS2(=O)=O
Potency: inactive
//
Molecule: Cc1ccc(C(=O)Nc2ccc(S(=O)(=O)O)c3cc(S(=O)(=O)O)cc(S(=O)(=O)O)c23)cc1NC(=O)c1cccc(NC(=O)Nc2cccc(C(=O)Nc3cc(C(=O)Nc4ccc(S(=O)(=O)O)c5cc(S(=O)(=O)O)cc(S(=O)(=O)O)c45)ccc3C)c2)c1
Potency: inactive
//
Molecule: CC1(C)O[C@H]2CC(=O)OC[C@]23[C@H]2CC[C@@]4(C)[C@H](c5ccoc5)OC(=O)[C@H]5O[C@]54[C@]2(C)C(=O)C[C@@H]13
Potency: inactive
//
Molecule: COc1ccc2c(c1)c(CC(=O)O)c(C)n2C(=O)c1ccc(Cl)cc1
Potency: inactive
//
Molecule: O=C(CCCN1CCC(O)(c2ccc(Cl)cc2)CC1)c1ccc(F)cc1
Potency: 18.8 µM (active)

Q: Sample CN(C)C(=N)N=C(N)N — what was its Potency?
Ans: inactive

Q: Using the record for CC(=O)OCC(CCn1cnc2cnc(N)nc21)COC(C)=O , report its Potency.
Ans: inactive

* * *

Assay Overview: Quantitative High-Throughput drug screen in 47 multiple myeloma cell lines against the NCATS MIPE library collection: AMO1_DSMZ cell viability assay (AID 1918927; note: nearly all actives have a fitted effect of over 30% in size)
Run Conditions: AMO1 myeloma cells viability, CellTiter-Glo ATP luminescence, 48 h; series mostly up to 45.8 µM
Results filed as inconclusive are left out. Calls of active or inactive are those of the source. Calls follow the shape of the dose curve; as a rule, active = well fitted cell-killing curve with a large enough effect; inconclusive = small, poorly fitted or top-dose-only effect, or effect the other way; inactive = no such curve, though single readings can be large or run the other way.
Your reply should match one of these outcome classes. yes (1) = active, no (0) = inactive

Recorded results for 5 molecules are shown here.
Molecule: NCCc1cnc[nH]1
Assigned Label: no (0)
//
Molecule: COc1ccc2[nH]cc(CCNC(C)=O)c2c1
Assigned Label: yes (1)
//
Molecule: O=C(c1ccc(F)cc1)C1CCN(CCn2c(=O)[nH]c3ccccc3c2=O)CC1
Assigned Label: no (0)
//
Molecule: CC(C)Cc1ccc(C(C)C(=O)O)cc1 (configuration not stated)
Assigned Label: no (0)
//
Molecule: CCC1(C)CC(=O)NC1=O (configuration not stated)
Assigned Label: no (0)

Q: What classification did CCN1CCCC1CNC(=O)c1cc(S(=O)(=O)CC)c(N)cc1OC (configuration not stated) end up with in this test?
Ans: yes (1)

Q: Fill in: this test's call for CC1(C)O[C@H]2CC(=O)OC[C@]23[C@H]2CC[C@@]4(C)[C@H](c5ccoc5)OC(=O)[C@H]5O[C@]54[C@]2(C)C(=O)C[C@@H]13 is ___
Ans: no (0)

Q: Any idea what this test logged for CC(C(=O)O)c1cccc(C(=O)c2ccccc2)c1 (configuration not stated) ?
Ans: no (0)

Q: Write down the call the test reported for this molecule. Item: CN(CCOc1ccc(NS(C)(=O)=O)cc1)CCc1ccc(NS(C)(=O)=O)cc1
Ans: no (0)

Q: Please state the recorded outcome for this molecule: CC[C@@]1(O)C(=O)OCc2c1cc1n(c2=O)Cc2cc3c(CN(C)C)c(O)ccc3nc2-1
Ans: yes (1)

Q: Status in this test for CC[N+](CC)(CC)CCOc1cccc(OCC[N+](CC)(CC)CC)c1OCC[N+](CC)(CC)CC ?
Ans: no (0)

Q: Check the results log: what was the call for CCOC(=O)c1ncn2c1CN(C)C(=O)c1cc(F)ccc1-2 ?
Ans: no (0)

Q: Each molecule tested received a call. Report the one for CC(CCc1ccc(O)cc1)NCCc1ccc(O)c(O)c1 (configuration not stated) .
Ans: yes (1)

Q: Can you look up the reported call for COc1ccc(C2CNC(=O)C2)cc1OC1CCCC1 (configuration not stated) for me?
Ans: no (0)

Q: I would be grateful if you could indicate the recorded call for CN(C)c1nc(N(C)C)nc(N(C)C)n1 .
Ans: no (0)
